Taken from paper PMC8717366.

- Assay type: in vitro ADME, male Wistar rats
- Condition context: incubation in rat plasma, 37 °C
Peptide text beside a SMILES is read from it.
Readout: half-life (min)
# unit: min | format: bare number

[in] Report measured half-life; entry is CSCC[C@H](NC(=O)[C@@H](NC(=O)CNC(=O)[C@@H](N)CCCCN)[C@@H](C)O)C(=O)N[C@@H](CC(C)C)C(=O)N[C@@H](CC(=O)O)C(=O)NCC(=O)N[C@@H](CC(C)C)C(N)=O [sequence 6, KG39TMLDG44L] (H-KGTMLDGL-NH2; N-terminus and C-terminus assumed)
[out] 7

====

- Method description: Pharmacokinetics in rats after single i.v. dose
- Assay type: in vivo, Male Wistar rats
- Condition context: rat, in vivo, iv, single i.v. dose 0.515 mg/kg, n = 4, noncompartmental analysis
Numbered stars: 1 amine (or outer) side, 2 acyl side, 3 side chain; on linkers, the order of the positions; unused ones are H or OH. Bridge positions count the residues as written; N and C are the ends. Square brackets hold non-standard residues; d marks the D form. Peptide text beside a SMILES is read from it. CO = O=C([*:1])[*:2]; Nlys = NCCCCNCC(=O)O
Readout: clearance (mL/min/kg)
Record the value in mL/min/kg, omitting the unit from your answer.

[in] Please give measured clearance of the following entry: CSCC[C@@H]1NC(=O)[C@H]([C@@H](C)O)NC(=O)CN(C(=O)[C@@H](N)CCCCN)CCCCNC(=O)NCCCCN(CC(=O)N[C@@H](CC(C)C)C(N)=O)C(=O)[C@H](CC(=O)O)NC(=O)[C@H](CC(C)C)NC1=O [visabron c (4–4)] (H-K[Nlys]TMLD[Nlys]L-NH2; linker 2-7 via CO)
[out] 11.1
